Data credit: PubChem BioAssay AID1159580

- Assay Method Text: chemical genetic growth profiling, strain panel (AID 1159580);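 also: tested at 20 µM; growth read once vehicle control cultures reached saturation at 30 °C; 1 = growth at the plate median or of vehicle wells; lower values mean less growth of the strain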
- Conditions Used: S. cerevisiae deletion strains, growth OD, locus YDL074C, strain BRE1, active compounds read low
Hit rate of the full screen: of about 5,500 compounds, about 2,000 (36%) were called active. About 18% were inconclusive and are not listed. This is one part of the list.
Outcome Measure: normalized growth

[
  {
    "Molecule": "Cc1cc(C)cc(OCC2CNC(=O)O2)c1 (configuration not stated)",
    "Reported Value": 1.03
  },
  {
    "Molecule": "CCCCC[C@H](CC(=O)NO)C(=O)N[C@H](C(=O)N1CCC[C@H]1CO)C(C)C",
    "Reported Value": 1.02
  },
  {
    "Molecule": "C[C@H](N)[C@H](O)c1ccccc1",
    "Reported Value": 1.01
  },
  {
    "Molecule": "CC(CN(C)C)CN1c2ccccc2Sc2ccccc21 (configuration not stated)",
    "Reported Value": 0.933
  },
  {
    "Molecule": "CN(C)CCC(c1ccc(Br)cc1)c1ccccn1 (configuration not stated)",
    "Reported Value": 0.952
  },
  {
    "Molecule": "CC(CN(C)C)CN1c2ccccc2CCc2ccccc21 (configuration not stated)",
    "Reported Value": 1.02
  },
  {
    "Molecule": "CCOC(=O)[C@H](CCc1ccccc1)N[C@@H](C)C(=O)N1Cc2ccccc2C[C@H]1C(=O)O",
    "Reported Value": 0.996
  },
  {
    "Molecule": "COc1cc([C@H]2Oc3cc([C@H]4Oc5cc(O)cc(O)c5C(=O)[C@@H]4O)ccc3O[C@@H]2CO)ccc1O",
    "Reported Value": 0.986
  },
  {
    "Molecule": "CCN(CC)C(C)CN1c2ccccc2Sc2ccccc21 (configuration not stated)",
    "Reported Value": 0.864
  },
  {
    "Molecule": "CN(C)CCOC(=O)COc1ccc(Cl)cc1",
    "Reported Value": 1.05
  },
  {
    "Molecule": "COc1cc(C)c(C(=O)Oc2cc(C)c(C(=O)O)c(O)c2C)c(OC)c1C",
    "Reported Value": 0.982
  },
  {
    "Molecule": "CC(CN1c2ccccc2Sc2cccnc21)N(C)C (configuration not stated)",
    "Reported Value": 1.04
  },
  {
    "Molecule": "C[C@@H]1O[C@@H](O[C@H]2C[C@@H](O)[C@]3(CO)C4C(CC[C@]3(O)C2)[C@@]2(O)CC[C@H](C3=CC(=O)OC3)[C@@]2(C)C[C@H]4O)[C@H](O)[C@H](O)[C@H]1O (some centres not stated)",
    "Reported Value": 1.04
  },
  {
    "Molecule": "COc1cc2c(cc1O)C(Cc1ccc(O)cc1)N(C)CC2 (configuration not stated)",
    "Reported Value": 1.06
  },
  {
    "Molecule": "CCC(=O)c1ccc2c(c1)N(CC(C)N(C)C)c1ccccc1S2 (configuration not stated)",
    "Reported Value": 0.95
  },
  {
    "Molecule": "c1ccc2c(c1)CN1CCCC1=N2",
    "Reported Value": 1.01
  },
  {
    "Molecule": "CN[C@@H]1[C@H](OC2[C@H](O[C@H]3[C@H](O)[C@@H](O)[C@H](N=C(N)N)[C@@H](O)[C@@H]3N=C(N)N)O[C@@H](C)[C@]2(O)C=O)O[C@@H](CO)[C@H](O)[C@H]1O (some centres not stated)",
    "Reported Value": 1.01
  },
  {
    "Molecule": "COC(=O)c1c(C)cc(OC(=O)c2c(C)cc(O)c(C=O)c2O)c(C)c1O",
    "Reported Value": 1.03
  },
  {
    "Molecule": "CC(CN1c2ccccc2Sc2ccccc21)N(C)C (configuration not stated)",
    "Reported Value": 0.906
  },
  {
    "Molecule": "CNCCCN1c2ccccc2CCc2ccccc21",
    "Reported Value": 1
  },
  {
    "Molecule": "CN(C)N=Nc1nc[nH]c1C(N)=O",
    "Reported Value": 1.01
  },
  {
    "Molecule": "COC(=O)c1c(C)cc(OC(=O)c2c(C)c(Cl)c(O)c(C=O)c2O)c(C)c1O",
    "Reported Value": 1
  }
]
